Molecular target: DN-III-NS antigen (produced by Fapon Biotech InC.) (dengue virus)
Experiment: capture ELISA, antibody sample 27-fold dilution
Assay endpoint: OD450 (ref. 630 nm) (OD)
All answers are understood in OD, so give the number only.

Example cases with answers are listed next.
{"columns": ["Binder", "Endpoint value"],
 "data": [
  ["anti-dengue virus NS1 3D5 monoclonal antibody (recombinant, expressed in CHO cells) (antibody, mouse IgG1, kappa, V domains shown) VH: EVQLQQSGTELVRPGALVKLSCKASGFNIKDYYVHWVKQRPRQGLEWIGWIDPNNGKTIYDPKFQDKASITSDTSTNTAYLQLRSLTSEDTAVYYCVTAYVRFVYWGQGTLVTVSA VL: QIVLTQSPAIMSAFPGERVTMTCSASTSVKYMYWHQQKPGSSPRLLIYETSNIASGVPVRFSGSGSGTSYSLTISRDEAMDAATYYCQQWSSYPRTFGGGTKLEIKR", 1.57],
  ["Mutation 1 (antibody, V domains shown) VH: EVQLQQSGTELVRPGALVKLSCKASGFNIKDYYVHWVKQRPRQGLEWIGWIDPENGKTLYDPKFQDKASITSDTSTNTAYLQLRSLTSEDTAVYYCVTAYVRFVYWGQGTLVTVSA VL: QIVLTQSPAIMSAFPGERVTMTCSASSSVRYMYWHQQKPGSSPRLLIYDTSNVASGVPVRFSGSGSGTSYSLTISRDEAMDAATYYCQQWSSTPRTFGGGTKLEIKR", 1.9]
]}

Lookup: Return value of OD450 (ref. 630 nm) for input Mutation 2 (antibody, V domains shown) VH: EVQLQQSGTELVRPGALVKLSCKASGFNIKDYYVHWVKQRPRQGLEWIGWIDPNNGKTLYDPKYQDKASITSDTSTNTAYLQLRSLTSEDTAVYYCVTAYVRFVYWGQGTLVTVSA VL: QIVLTQSPAIMSAFPGERVTMTCSASSSVRYMYWHQQKPGSSPRLLIYDTSNVASGVPVRFSGSGSGTSYSLTISRDEAMDAATYYCQQYSSTPRTFGGGTKLEIKR , no commentary.
Found: 1.56

Source: patent US20240158475A1
